TARGET OR SYSTEM: TRKC (Homo sapiens, UniProt Q16288)
Construct: purchased Carna 08-196
Sequence (Q16288 32-839): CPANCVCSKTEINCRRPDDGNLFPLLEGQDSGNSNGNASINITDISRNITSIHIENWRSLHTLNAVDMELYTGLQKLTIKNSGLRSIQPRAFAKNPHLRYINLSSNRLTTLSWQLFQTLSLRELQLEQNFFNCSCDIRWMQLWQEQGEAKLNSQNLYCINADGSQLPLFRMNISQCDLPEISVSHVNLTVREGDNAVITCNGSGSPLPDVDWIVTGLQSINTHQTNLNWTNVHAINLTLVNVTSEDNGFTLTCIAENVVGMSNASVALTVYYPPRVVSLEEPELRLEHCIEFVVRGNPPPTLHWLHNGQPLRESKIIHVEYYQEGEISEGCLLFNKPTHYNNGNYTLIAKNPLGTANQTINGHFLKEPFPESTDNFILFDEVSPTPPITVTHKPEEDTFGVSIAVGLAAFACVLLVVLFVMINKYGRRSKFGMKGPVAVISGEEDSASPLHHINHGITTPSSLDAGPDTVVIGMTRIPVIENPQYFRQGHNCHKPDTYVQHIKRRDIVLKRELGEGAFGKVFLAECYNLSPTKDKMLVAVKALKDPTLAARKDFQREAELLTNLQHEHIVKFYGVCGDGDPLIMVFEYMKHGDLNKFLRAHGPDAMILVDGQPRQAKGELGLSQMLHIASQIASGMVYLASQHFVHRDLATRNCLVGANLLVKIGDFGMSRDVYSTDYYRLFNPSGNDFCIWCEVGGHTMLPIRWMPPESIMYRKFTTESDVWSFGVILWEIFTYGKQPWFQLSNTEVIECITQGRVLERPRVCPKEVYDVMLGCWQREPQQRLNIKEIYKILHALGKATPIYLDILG
ASSAY REMARKS: Determination of inhibitory activity against TRKC kinase (ADP-Glo Kinase Assay)
Type: biochemical
CONDITION DETAILS: ATP 5 μM, Poly (4:1 Glu, Tyr) Peptide 0.03 mg/ml
Binary label based on IC50 with cut-off 2 nM: below gives True, not below gives False.

Reference set, count: 5
- CCN1CCC(CN2Cc3nc(-c4n[nH]c5ccc(OC(C)c6cc(F)cc(F)c6)cc45)[nH]c3C2)CC1 (stereo not shown): True
- C[C@@H](Oc1ccc2[nH]nc(-c3nc4c([nH]3)CN(CC3CCN(C)CC3)C4)c2c1)c1cc(F)cc(F)c1: True
- CC(Nc1ccc2[nH]nc(-c3nc4c([nH]3)CN(CC3CCNCC3)C4)c2c1)c1cc(F)cc(F)c1 (stereo not shown): False
- CC(Oc1ccc2[nH]nc(-c3nc4c([nH]3)CN(CCC3CCN(C)CC3)C4)c2c1)c1cc(F)cc(F)c1 (stereo not shown): False
- CC(Oc1ccc2[nH]nc(-c3nc4c([nH]3)CN(CC3CCN(C)CC3)C4)c2c1)c1cc(F)cc(C#N)c1 (stereo not shown): False

Incoming: IC50 under 2 nM? Item: CC(Oc1ccc2[nH]nc(-c3nc4c([nH]3)CN(CC3CCNCC3)C4)c2c1)c1cc(F)cc(F)c1 (stereo not shown)
Outgoing: True

Incoming: IC50 under 2 nM? Item: CC(Oc1ccc2[nH]nc(-c3nc4c([nH]3)CN(CC3CCCN3)C4)c2c1)c1cc(F)cc(F)c1 (stereo not shown)
Outgoing: True

----------
TARGET OR SYSTEM: TRKB (Homo sapiens, UniProt Q16620)
Construct: purchased SignalChem N17-11G
Sequence (Q16620 32-822): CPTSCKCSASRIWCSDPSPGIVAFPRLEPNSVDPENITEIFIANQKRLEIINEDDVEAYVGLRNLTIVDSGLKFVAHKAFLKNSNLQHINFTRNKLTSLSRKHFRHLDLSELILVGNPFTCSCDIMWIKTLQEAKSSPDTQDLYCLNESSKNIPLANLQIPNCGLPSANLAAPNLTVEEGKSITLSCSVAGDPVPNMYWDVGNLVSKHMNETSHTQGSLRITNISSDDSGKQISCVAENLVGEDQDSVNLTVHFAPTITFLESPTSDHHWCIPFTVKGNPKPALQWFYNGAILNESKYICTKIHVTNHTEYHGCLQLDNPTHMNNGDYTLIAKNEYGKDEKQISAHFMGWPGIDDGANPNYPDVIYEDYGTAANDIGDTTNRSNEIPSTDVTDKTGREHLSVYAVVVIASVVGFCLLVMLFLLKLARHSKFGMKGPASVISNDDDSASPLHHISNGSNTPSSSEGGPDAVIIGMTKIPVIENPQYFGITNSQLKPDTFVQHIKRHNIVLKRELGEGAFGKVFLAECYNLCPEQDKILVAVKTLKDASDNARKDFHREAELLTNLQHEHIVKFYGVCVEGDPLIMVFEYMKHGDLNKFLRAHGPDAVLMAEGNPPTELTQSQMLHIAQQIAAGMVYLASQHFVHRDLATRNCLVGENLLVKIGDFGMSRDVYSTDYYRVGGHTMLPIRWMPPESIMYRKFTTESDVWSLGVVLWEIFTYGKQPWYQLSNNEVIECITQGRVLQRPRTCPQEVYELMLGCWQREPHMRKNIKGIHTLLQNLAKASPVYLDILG
ASSAY REMARKS: Determination of inhibitory activity against TRKB kinase (ADP-Glo Kinase Assay)
Format: biochemical
CONDITION DETAILS: ATP 20 μM, Poly (4:1 Glu, Tyr) Peptide 0.03 mg/ml
Measured IC50 values are reported for all entries that follow.
Give your result in nM as a bare value.

Below are worked cases with known answers.
- CC(Oc1ccc2[nH]nc(-c3nc4c([nH]3)CN(C3CCC(N(C)C)C3)C4)c2c1)c1cc(F)cc(F)c1 (stereo not shown) [Example 46]: 1.4
- CC(Oc1ccc2[nH]nc(-c3nc4c([nH]3)CN(C3CCCC(N(C)C)C3)C4)c2c1)c1cc(F)cc(F)c1 (stereo not shown) [Example 45]: 0.83
- CCN1CCCC(N2Cc3nc(-c4n[nH]c5ccc(OC(C)c6cc(F)cc(F)c6)cc45)[nH]c3C2)C1 (stereo not shown) [Example 43]: 1.4
- CC(Oc1ccc2[nH]nc(-c3nc4c([nH]3)CN(C3CCN(C)C3)C4)c2c1)c1cc(F)cc(F)c1 (stereo not shown) [Example 41]: 3
- O=C(C1CC1)N1Cc2nc(-c3n[nH]c4ccc(Cc5cc(F)cc(F)c5)cc34)[nH]c2C1 [Example 13]: 4.4

Incoming: Fill blank: measured IC50 of the molecule CCN1CCC(CN2Cc3nc(-c4n[nH]c5ccc(OC(C)c6cc(F)cc(F)c6)cc45)[nH]c3C2)CC1 (stereo not shown) [Example 17] is ____.
Outgoing: 4.2

Incoming: Fill blank: measured IC50 of the molecule CC(Oc1ccc2[nH]nc(-c3nc4c([nH]3)CN(C(C)C3CN(C)C3)C4)c2c1)c1cc(F)cc(F)c1 (stereo not shown) [Example 34] is ____.
Outgoing: 2

Incoming: Fill blank: measured IC50 of the molecule CC(Oc1ccc2[nH]nc(-c3nc4c([nH]3)CN(CCC3CCN(C)CC3)C4)c2c1)c1cc(F)cc(F)c1 (stereo not shown) [Example 21] is ____.
Outgoing: 6.8

Incoming: Fill blank: measured IC50 of the molecule CC(Nc1ccc2[nH]nc(-c3nc4c([nH]3)CNC4)c2c1)c1cc(F)cc(F)c1 (stereo not shown) [Example 1] is ____.
Outgoing: 2.8

Incoming: Fill blank: measured IC50 of the molecule CC(Oc1ccc2[nH]nc(-c3nc4c([nH]3)CN(C(=O)OC3CCN(C)C3)C4)c2c1)c1cc(F)cc(F)c1 (stereo not shown) [Example 30] is ____.
Outgoing: 2

Incoming: Fill blank: measured IC50 of the molecule CC(Oc1ccc2[nH]nc(-c3nc4c([nH]3)CN(C(=O)OC3CCN(C)CC3)C4)c2c1)c1cc(F)cc(F)c1 (stereo not shown) [Example 10] is ____.
Outgoing: 2.5

Incoming: Fill blank: measured IC50 of the molecule CC(Oc1ccc2[nH]nc(-c3nc4c([nH]3)CN(CC3CCCNC3)C4)c2c1)c1cc(F)cc(F)c1 (stereo not shown) [Example 24] is ____.
Outgoing: 5.3

Incoming: Fill blank: measured IC50 of the molecule CC(Oc1ccc2[nH]nc(-c3nc4c([nH]3)CN(CC3CCN(C)CC3)C4)c2c1)c1cc(F)cc(C#N)c1 (stereo not shown) [Example 47] is ____.
Outgoing: 8.9
